system: vancomycin-resistant enterococci; assay: broth micro-dilution, mean geometric MIC; assay type: cell-based, Enterococcus faecium and Enterococcus faecalis; settings: enterococci, 24-hour incubation
Reported mean geometric MIC, Vancomycin Resistant Strains values for a set of compounds
measure: mean geometric MIC, Vancomycin Resistant Strains (µg/mL)

compound	unitAbbreviation	valueObserved
CNC(CC(C)C)C(=O)NC1C(=O)NC(CC(N)=O)C(=O)NC2C(=O)NC3C(=O)NC(C(=O)NC(C(=O)O)c4cc(O)cc(O)c4-c4cc3ccc4O)C(OC3CC(C)(N)C(O)C(C)O3)c3ccc(c(Cl)c3)Oc3cc2cc(c3OC2OC(CO)C(O)C(O)C2OC2CC(C)(NCc3ccc4c(c3)Cc3ccccc3-4)C(O)C(C)O2)Oc2ccc(cc2Cl)C1O (centres unmarked)	µg/mL	0.50
CNC(CC(C)C)C(=O)NC1C(=O)NC(CC(N)=O)C(=O)NC2C(=O)NC3C(=O)NC(C(=O)NC(C(=O)O)c4cc(O)cc(O)c4-c4cc3ccc4O)C(OC3CC(C)(N)C(O)C(C)O3)c3ccc(c(Cl)c3)Oc3cc2cc(c3OC2OC(CO)C(O)C(O)C2OC2CC(C)(NCc3ccc4c(c3)CCO4)C(O)C(C)O2)Oc2ccc(cc2Cl)C1O (centres unmarked)	µg/mL	22
CCCCCCCCOc1ccc(-c2ccc(CNC3(C)CC(OC4C(Oc5c6cc7cc5Oc5ccc(cc5Cl)C(OC5CC(C)(N)C(O)C(C)O5)C5NC(=O)C(NC(=O)C7NC(=O)C(CC(N)=O)NC(=O)C(NC(=O)C(CC(C)C)NC)C(O)c7ccc(c(Cl)c7)O6)c6ccc(O)c(c6)-c6c(O)cc(O)cc6C(C(=O)O)NC5=O)OC(CO)C(O)C4O)OC(C)C3O)cc2)cc1 (centres unmarked)	µg/mL	5.7
CNC(CC(C)C)C(=O)NC1C(=O)NC(CC(N)=O)C(=O)NC2C(=O)NC3C(=O)NC(C(=O)NC(C(=O)O)c4cc(O)cc(O)c4-c4cc3ccc4O)C(OC3CC(C)(N)C(O)C(C)O3)c3ccc(c(Cl)c3)Oc3cc2cc(c3OC2OC(CO)C(O)C(O)C2OC2CC(C)(NCc3c(OC)ccc4ccccc34)C(O)C(C)O2)Oc2ccc(cc2Cl)C1O (centres unmarked)	µg/mL	11
CNC(CC(C)C)C(=O)NC1C(=O)NC(CC(N)=O)C(=O)NC2C(=O)NC3C(=O)NC(C(=O)NC(C(=O)O)c4cc(O)cc(O)c4-c4cc3ccc4O)C(OC3CC(C)(N)C(O)C(C)O3)c3ccc(c(Cl)c3)Oc3cc2cc(c3OC2OC(CO)C(O)C(O)C2OC2CC(C)(NCC(C)=Cc3ccc(C(C)(C)C)cc3)C(O)C(C)O2)Oc2ccc(cc2Cl)C1O (centres unmarked)	µg/mL	1.7
CNC(CC(C)C)C(=O)NC1C(=O)NC(CC(N)=O)C(=O)NC2C(=O)NC3C(=O)NC(C(=O)NC(C(=O)O)c4cc(O)cc(O)c4-c4cc3ccc4O)C(OC3CC(C)(N)C(O)C(C)O3)c3ccc(c(Cl)c3)Oc3cc2cc(c3OC2OC(CO)C(O)C(O)C2OC2CC(C)(NCc3cccc(Oc4ccc(C(F)(F)F)cc4)c3)C(O)C(C)O2)Oc2ccc(cc2Cl)C1O (centres unmarked)	µg/mL	1.2
CNC(CC(C)C)C(=O)NC1C(=O)NC(CC(N)=O)C(=O)NC2C(=O)NC3C(=O)NC(C(=O)NC(C(=O)O)c4cc(O)cc(O)c4-c4cc3ccc4O)C(OC3CC(C)(N)C(O)C(C)O3)c3ccc(c(Cl)c3)Oc3cc2cc(c3OC2OC(CO)C(O)C(O)C2OC2CC(C)(NCC3CCC(C4CCCCC4)CC3)C(O)C(C)O2)Oc2ccc(cc2Cl)C1O (centres unmarked)	µg/mL	1.7
CNC(CC(C)C)C(=O)NC1C(=O)NC(CC(N)=O)C(=O)NC2C(=O)NC3C(=O)NC(C(=O)NC(C(=O)O)c4cc(O)cc(O)c4-c4cc3ccc4O)C(OC3CC(C)(N)C(O)C(C)O3)c3ccc(c(Cl)c3)Oc3cc2cc(c3OC2OC(CO)C(O)C(O)C2OC2CC(C)(NCCc3cccc(Oc4ccccc4)c3)C(O)C(C)O2)Oc2ccc(cc2Cl)C1O (centres unmarked)	µg/mL	9.5
CNC(CC(C)C)C(=O)NC1C(=O)NC(CC(N)=O)C(=O)NC2C(=O)NC3C(=O)NC(C(=O)NC(C(=O)O)c4cc(O)cc(O)c4-c4cc3ccc4O)C(OC3CC(C)(N)C(O)C(C)O3)c3ccc(c(Cl)c3)Oc3cc2cc(c3OC2OC(CO)C(O)C(O)C2OC2CC(C)(NCCCCCCCCOc3ccc(Oc4ccccc4)cc3)C(O)C(C)O2)Oc2ccc(cc2Cl)C1O (centres unmarked)	µg/mL	1.4
CCCCCCCC#Cc1ccc(CN[C@@]2(C)C[C@H](O[C@H]3[C@H](Oc4c5cc6cc4Oc4ccc(cc4Cl)[C@@H](O[C@H]4C[C@](C)(N)[C@@H](O)[C@H](C)O4)[C@@H]4NC(=O)[C@H](NC(=O)[C@@H]6NC(=O)[C@H](CC(N)=O)NC(=O)[C@H](NC(=O)[C@@H](CC(C)C)NC)[C@H](O)c6ccc(c(Cl)c6)O5)c5ccc(O)c(c5)-c5c(O)cc(O)cc5[C@@H](C(=O)O)NC4=O)O[C@H](CO)[C@@H](O)[C@@H]3O)O[C@@H](C)[C@@H]2O)cc1	µg/mL	0.71
CNC(CC(C)C)C(=O)NC1C(=O)NC(CC(N)=O)C(=O)NC2C(=O)NC3C(=O)NC(C(=O)NC(C(=O)O)c4cc(O)cc(O)c4-c4cc3ccc4O)C(OC3CC(C)(N)C(O)C(C)O3)c3ccc(c(Cl)c3)Oc3cc2cc(c3OC2OC(CO)C(O)C(O)C2OC2CC(C)(NCc3ccc4c(c3)OCCO4)C(O)C(C)O2)Oc2ccc(cc2Cl)C1O (centres unmarked)	µg/mL	19
